Tested on: MOLT-4
experiment-notes: NCI tumour cell line growth inhibition, 48 h
Calls of active or inactive are those of the source. Rule as the data show it: active = GI50 up to about 1.1 µM and inactive = higher.
endpoint-name: GI50

{"columns": ["molecule", "GI50"],
 "data": [
  ["NC(=O)c1ccc(N)nc1 [6-AMINONICOTINAMIDE]", "38.6 µM (inactive)"],
  ["C/C(=C\\c1ccccc1)C(=O)c1c(C)cc(C)cc1C", "> 100 µM (inactive)"],
  ["OC1CCC[C@@H]1Sc1ccccc1 (stereo not given in full)", "> 100 µM (inactive)"],
  ["c1cc2c(s1)-c1sccc1C21OCCO1", "> 100 µM (inactive)"]
]}

Consider now this further molecule.
Problem: Using the record for Cn1c(=O)c2c(ncn2Cc2ccc(O)c([N+](=O)[O-])c2)n(C)c1=O , report its GI50.
Solution: > 100 µM (inactive)

----------
Test system: HOP-18
experiment-notes: NCI tumour cell line growth inhibition, 48 h
The source made the active and inactive calls. No stated cut-off is given here; in the data, active = GI50 up to about 1.1 µM and inactive = higher.
Would you mind answering with one of these outcomes? active, inactive

Some entries whose results are on file:
{"columns": ["compound", "class-label"],
 "data": [
  ["C=C1C(=O)O[C@@H]2OC3(C)CCC4C(C)CCC1C42OO3 (some centres undefined)", "inactive"],
  ["O=c1c(O)c(-c2ccc(O)c(O)c2)oc2cc(O)ccc12 [FISETIN]", "inactive"],
  ["O=C1/C(=C/c2ccccc2)CN(C(=O)Oc2ccccc2)C/C1=C\\c1ccccc1", "inactive"]
]}

Problem: // return assay outcome for CC(=O)OC(C)(C)/C=C/C(=O)[C@](C)(O)[C@H]1[C@H](O)C[C@@]2(C)[C@@H]3CC=C4[C@@H](C=C(O)C(=O)C4(C)C)[C@]3(C)C(=O)C[C@]12C [CUCURBITACIN E]
Solution: active

Problem: Follow-up item: [N-]=[N+]=C1C(=O)C2CC3CC(C2)CC1C3
Solution: inactive

Problem: Lookup N#CC(C(=O)CCC(=O)Nc1cccc(C(F)(F)F)c1)c1ccc(Cl)cc1 (centres undefined)
Solution: inactive

Problem: Ok, now COc1ccc(/C(Cl)=C(\C=O)c2ccccc2)cc1OC
Solution: inactive

Problem: Continue with CC(=O)OCC1OC(NC(=O)N(CCCl)N=O)C(OC(C)=O)C(OC(C)=O)C1OC(C)=O (centres undefined)
Solution: inactive

Problem: Also, COC1C2c3cc4c(cc3CC(C#N)(c3ccccc32)N1C(=O)c1ccccc1)OCO4 (centres undefined) please.
Solution: inactive

Problem: Now the compound C=C[C@]1(C)CC(O)C2C(=C)C(=O)OC2[C@H]1C(=C)C=O (some centres undefined)
Solution: inactive

Problem: Same again, this time with Cc1c(C(=O)/C=C/c2ccc3c(c2)OCO3)[n+]([O-])c2ccccc2[n+]1[O-]
Solution: inactive

Problem: Then this compound: CN(C)CCCCN1CCc2c(n(C)c3ccccc23)C1=O
Solution: inactive

Problem: Now the same for CCCN1CN(C(C(=O)N[C@@H]2C(=O)N3C(C(=O)O)=C(C)CSC23)c2ccccc2)CSC1=S (some centres undefined)
Solution: inactive

Problem: Next compound up: O=C(O)NC(c1ccccc1)C(NC(=O)c1ccccc1)c1ccccc1 (centres undefined)
Solution: inactive

----------
Tested on: OVCAR-4
experiment-notes: NCI tumour cell line growth inhibition, 48 h
The source made the active and inactive calls. Cut-off read from the data, not from the text of the source: active = GI50 up to about 1.1 µM and inactive = higher.
endpoint-name: GI50

{"columns": ["molecule", "measured-target", "experimental-value"],
 "data": [
  ["O=C(NC1C(=O)NC(CCc2ccccc2)NC1=O)OCc1ccccc1 (centres undefined)", "OVCAR-4", "> 100 µM (inactive)"]
]}

Problem: Reported GI50, molecule CN1C(C)(C)CC(=O)C(Br)C1(C)C (centres undefined) : ____
Solution: > 100 µM (inactive)

Problem: Quick one: CC(=O)O[C@]12CCCCCC1C1(O)C(O)CCCCC12 (some centres undefined)
Solution: > 100 µM (inactive)

Problem: Now this one: O=S(=O)(Cc1nc2ccccc2s1)c1nc2ccccc2s1
Solution: 16.9 µM (inactive)

Problem: Also CCOP(=O)(O)CN1CCNCCN(CP(=O)(O)OCC)CCNCC1 ?
Solution: > 100 µM (inactive)

Problem: Can you check Cc1c(-c2ccccc2)[nH]n(C2=NCCN2)c1=O next?
Solution: > 100 µM (inactive)

Problem: Request: Cc1cc(C)n(C(=O)C(C)Sc2nnc(SC(C)C(=O)n3nc(C)cc3C)s2)n1 (centres undefined)
Solution: > 100 µM (inactive)

Problem: What do you get for CCCCCCCC1C(C)c2c([nH]c3ccccc23)C2C(=O)N(c3ccc(OC)cc3)C(=O)C21 (centres undefined) ?
Solution: 2.9 µM (inactive)

Problem: What about this molecule? CCCCCCCCCCCCCCCCOCC(Cl)CP(=O)(O)OP(=O)(O)OCC1OC(n2cnc3c(N)ncnc32)C(O)C1O (centres undefined)
Solution: > 100 µM (inactive)

Problem: How about CC(=O)O[C@H]1[C@@H](OC2CCCC2(c2ccccc2)c2ccccc2)O[N+]([O-])=C[C@@H]1c1ccccc1 (some centres undefined) ?
Solution: 6.46 µM (inactive)

Problem: Moving on to the next molecule: COCC(C)(C)/N=C/N1Cc2cc3ccccc3nc2C1
Solution: > 100 µM (inactive)

Problem: Let us now turn to O=C(NCCCCNCCCNC(=O)C(F)(F)F)C(F)(F)F
Solution: > 100 µM (inactive)

Problem: Let us now turn to OC(c1ccccc1Br)(c1ccccc1Br)C(F)(F)F
Solution: 29.2 µM (inactive)

Problem: What about this molecule? COc1cc(C)cc(C(=O)OCc2ccccc2)c1C1=C(Cl)C(=O)C(Cl)=CC1=O
Solution: > 5.13 µM (inactive)

Problem: Would you kindly repeat that for Nc1ccccc1[S+]([O-])c1ccccc1 (centres undefined) ?
Solution: > 100 µM (inactive)

Problem: // repeat for Cn1c(=O)n(C2(C)C[Se]C2)c2ccccc21 and report
Solution: > 100 µM (inactive)

Problem: Next record, please: C=C1C(=O)O[C@@]23C1CC[C@@H](C)C2CC[C@@]1(C)OC31 (some centres undefined)
Solution: 8.91 µM (inactive)

Problem: Lookup CCOC(=O)C1C(=O)CC(O)(c2ccccc2)C(C(=O)OCC)C1c1ccc(N(C)C)cc1 (centres undefined)
Solution: 59.2 µM (inactive)

Problem: Same read-out for OC12c3ccccc3C1CCCCCCCCCC21OCCO1 (centres undefined) ?
Solution: > 100 µM (inactive)
